As a worked illustration, we turn to AC50 data collected for UniProt:Q9Y5N1.
Sequence (Q9Y5N1 whole entry): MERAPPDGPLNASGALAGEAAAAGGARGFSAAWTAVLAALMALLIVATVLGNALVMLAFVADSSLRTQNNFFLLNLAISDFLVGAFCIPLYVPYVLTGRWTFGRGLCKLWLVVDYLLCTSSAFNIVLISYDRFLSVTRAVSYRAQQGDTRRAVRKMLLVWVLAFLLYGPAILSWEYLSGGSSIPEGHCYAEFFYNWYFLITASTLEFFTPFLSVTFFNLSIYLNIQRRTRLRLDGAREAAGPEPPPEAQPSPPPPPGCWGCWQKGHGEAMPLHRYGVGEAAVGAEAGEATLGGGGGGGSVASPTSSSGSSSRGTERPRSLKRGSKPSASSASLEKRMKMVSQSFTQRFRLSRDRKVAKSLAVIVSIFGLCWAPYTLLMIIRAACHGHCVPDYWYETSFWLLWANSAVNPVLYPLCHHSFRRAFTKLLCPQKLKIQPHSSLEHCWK

compound	AC50
Cc1c(O)c(=O)ccn1C	> 30 µM
COC(=O)N[C@H](C(=O)N1CCC[C@H]1c1nc(-c2ccc(-c3ccc(-c4c[nH]c([C@@H]5CCCN5C(=O)[C@@H](NC(=O)OC)C(C)C)n4)cc3)cc2)c[nH]1)C(C)C	> 30 µM
CN(C)CCCN1c2ccccc2Sc2ccccc21	> 10 µM
O=C(C[S+]([O-])C(c1ccccc1)c1ccccc1)NO (stereo not given)	> 30 µM
C[N+](C)(C)CC(=O)O	> 30 µM

* * *

tested.target: Alpha-2B adrenergic receptor (Homo sapiens, UniProt P18089); further: assay procedure not described here
Sequence (P18089 whole entry): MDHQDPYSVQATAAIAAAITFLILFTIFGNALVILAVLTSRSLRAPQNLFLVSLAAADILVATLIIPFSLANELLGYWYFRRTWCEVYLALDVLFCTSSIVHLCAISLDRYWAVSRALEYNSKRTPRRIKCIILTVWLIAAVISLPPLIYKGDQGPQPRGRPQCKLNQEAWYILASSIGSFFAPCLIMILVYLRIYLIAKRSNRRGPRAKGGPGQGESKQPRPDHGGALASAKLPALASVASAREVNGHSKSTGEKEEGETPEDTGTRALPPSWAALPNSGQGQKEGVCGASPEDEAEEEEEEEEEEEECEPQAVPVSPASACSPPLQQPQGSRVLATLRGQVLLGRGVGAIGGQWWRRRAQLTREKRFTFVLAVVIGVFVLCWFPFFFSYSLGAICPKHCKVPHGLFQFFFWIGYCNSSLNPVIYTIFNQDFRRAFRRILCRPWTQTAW
// values below are reported AC50

compound	AC50
O=C(OCCN1CCOCC1)c1cccnc1Nc1cccc(C(F)(F)F)c1 [MORNIFLUMATE]	> 30 µM
CC(=O)N[C@H]1[C@H]([C@H](O)[C@H](O)CO)OC(C(=O)O)=C[C@@H]1N=C(N)N [ZANAMIVIR]	> 30 µM
CN(C/C=C/c1ccccc1)Cc1cccc2ccccc12 [NAFTIFINE]	> 10 µM
CCCCCCCCOc1ccccc1C(=O)Nc1ccc(C(=O)OCC[N+](C)(CC)CC)cc1 [OTILONIUM BROMIDE]	2.9 µM
O=C(C[S+]([O-])C(c1ccccc1)c1ccccc1)NO (centres undefined)	> 30 µM
CC(C)[N+](C)(CCC(C(N)=O)(c1ccccc1)c1ccccc1)C(C)C [ISOPROPAMIDE]	> 10 µM
CC(C)NCC1CCc2cc(CO)c([N+](=O)[O-])cc2N1 (centres undefined) [OXAMNIQUINE]	> 10 µM
COC(=O)C1=C(C)NC(C)=C(C(=O)OC(C)C)C1c1cccc2nonc12 (centres undefined) [ISRADIPINE]	> 30 µM
CN1C(=O)CC(C)(c2ccccc2)C1=O (centres undefined) [METHSUXIMIDE]	> 10 µM

* * *

// values below are reported AC50
tested.target: Prothrombin (Homo sapiens, UniProt P00734); further: assay procedure not described here
Type: functional
property.measured: AC50

compound	tested.target	data.value
CN1CCCC(CN2c3ccccc3Sc3ccccc32)C1 (configuration not stated)	Prothrombin (Homo sapiens, UniProt P00734)	> 30 µM
O=C(c1ccc(F)c(F)c1Nc1ccc(I)cc1F)N1CC(O)([C@@H]2CCCCN2)C1	Prothrombin (Homo sapiens, UniProt P00734)	> 30 µM
CCO/N=C(\C(=O)N[C@@H]1C(=O)N2C(C(=O)[O-])=C(Sc3nc(-c4cc[n+](C)cc4)cs3)CS[C@H]12)c1nsc(N)n1	Prothrombin (Homo sapiens, UniProt P00734)	> 30 µM
COc1cc2c(cc1OC)C(=O)C(CC1CCN(Cc3ccccc3)CC1)C2 (configuration not stated)	Prothrombin (Homo sapiens, UniProt P00734)	> 30 µM
Nc1nc2ccc(OC(F)(F)F)cc2s1	Prothrombin (Homo sapiens, UniProt P00734)	> 30 µM
CC1=NN(c2ccccc2)C(=O)C1	Prothrombin (Homo sapiens, UniProt P00734)	> 30 µM
Nc1nc(-n2cc(C(=O)O)c(=O)c3cc(F)c(N4CC(O)C4)c(Cl)c32)c(F)cc1F	Prothrombin (Homo sapiens, UniProt P00734)	> 30 µM
O=C1CC[C@@]2(O)[C@H]3Cc4ccc(O)c5c4[C@@]2(CCN3CC2CC2)[C@H]1O5 [NALTREXONE]	Prothrombin (Homo sapiens, UniProt P00734)	> 30 µM
CC(=O)OC(C)C[N+](C)(C)C (configuration not stated)	Prothrombin (Homo sapiens, UniProt P00734)	> 30 µM
CC(O)CO (configuration not stated)	Prothrombin (Homo sapiens, UniProt P00734)	> 30 µM
CCC1C(C)=NN=C(c2ccc(OC)c(OC)c2)c2cc(OC)c(OC)cc21 (configuration not stated)	Prothrombin (Homo sapiens, UniProt P00734)	> 30 µM
C[C@@H]1C[C@H]2[C@@H]3C[C@H](F)C4=CC(=O)C=C[C@]4(C)[C@@]3(F)[C@@H](O)C[C@]2(C)[C@@]1(O)C(=O)COC(=O)C(C)(C)C [FLUMETHASONE PIVALATE]	Prothrombin (Homo sapiens, UniProt P00734)	> 30 µM
CN1C(=O)N(C)C2C1N(C)C(=O)N2C (configuration not stated)	Prothrombin (Homo sapiens, UniProt P00734)	> 30 µM
CCN(CC)CCNc1ccc(C)c2sc3ccccc3c(=O)c12	Prothrombin (Homo sapiens, UniProt P00734)	> 30 µM
Cc1cc2c(cc1CC(=O)c1sccc1S(=O)(=O)Nc1onc(C)c1Cl)OCO2	Prothrombin (Homo sapiens, UniProt P00734)	> 30 µM
O=[N+]([O-])c1cncn1CCN1CCOCC1	Prothrombin (Homo sapiens, UniProt P00734)	> 30 µM
CCCC1C(=O)N2C(N(C)C)=Nc3ccc(C)cc3N2C1=O (configuration not stated)	Prothrombin (Homo sapiens, UniProt P00734)	> 30 µM
CCC(=O)O[C@H]1[C@H](O[C@@H]2[C@@H](C)[C@H](O[C@H]3C[C@@](C)(OC)[C@@H](O)[C@H](C)O3)[C@@H](C)C(=O)O[C@H](CC)[C@@](C)(O)[C@H](O)[C@@H](C)C(=O)[C@H](C)C[C@@]2(C)O)O[C@H](C)C[C@@H]1N(C)C [ERYTHROMYCIN PROPIONATE]	Prothrombin (Homo sapiens, UniProt P00734)	> 30 µM
C[C@@H]1C[C@H]2[C@@H]3C[C@H](F)C4=CC(=O)C(Cl)=C[C@]4(C)[C@@]3(F)[C@@H](O)C[C@]2(C)[C@@]1(O)C(=O)CO	Prothrombin (Homo sapiens, UniProt P00734)	> 30 µM
C[C@@H]1O[C@@H](OC[C@H]2O[C@@H](Oc3c(-c4ccc(OCCO)c(OCCO)c4)oc4cc(OCCO)cc(O)c4c3=O)[C@H](O)[C@@H](O)[C@@H]2O)[C@H](O)[C@H](O)[C@H]1O	Prothrombin (Homo sapiens, UniProt P00734)	> 30 µM
CC(C(=O)O)c1ccc(N2CC=CC2)c(Cl)c1 (configuration not stated)	Prothrombin (Homo sapiens, UniProt P00734)	> 30 µM
C[N+](C)(C)CCCCCCCCCC[N+](C)(C)C	Prothrombin (Homo sapiens, UniProt P00734)	> 30 µM
COc1cc2c(cc1OC)[C@H]1C[C@@H](OC(=O)[C@@H](N)C(C)C)[C@H](CC(C)C)CN1CC2	Prothrombin (Homo sapiens, UniProt P00734)	> 30 µM
COc1cc(Nc2c(C#N)cnc3cc(OCCCN4CCN(C)CC4)c(OC)cc23)c(Cl)cc1Cl	Prothrombin (Homo sapiens, UniProt P00734)	> 30 µM
CCOc1ccc(/C=C2\NCCc3cc(OCC)c(OCC)cc32)cc1OCC	Prothrombin (Homo sapiens, UniProt P00734)	> 30 µM
Nc1ccc(C(=O)O)cc1	Prothrombin (Homo sapiens, UniProt P00734)	> 30 µM
O=C(O)c1cccc(-c2noc(-c3ccccc3F)n2)c1	Prothrombin (Homo sapiens, UniProt P00734)	> 30 µM
COc1ccc2c(c1)OC(C)(C)C(c1ccccc1)C2c1ccc(OCCN2CCCC2)cc1 (configuration not stated)	Prothrombin (Homo sapiens, UniProt P00734)	> 30 µM
CC(C)=CCC1C(=O)N(c2ccccc2)N(c2ccccc2)C1=O	Prothrombin (Homo sapiens, UniProt P00734)	> 30 µM
OC[C@@H](O)[C@@H](O)[C@H](O)[C@H](O)CO	Prothrombin (Homo sapiens, UniProt P00734)	> 30 µM
CN1CCN(C(c2ccccc2)c2ccccc2)CC1	Prothrombin (Homo sapiens, UniProt P00734)	> 30 µM
CC(C(=O)O)c1ccc2c(c1)Cc1cccnc1O2 (configuration not stated)	Prothrombin (Homo sapiens, UniProt P00734)	> 30 µM
